# target_or_test_system: Chaperone protein DnaK (Escherichia coli (strain K12))
# method: binders of DnaK substrate-binding domain, biophysical, NMR, chaperone (AID 1033)
# conditions: Purified DnaK SBD, NMR ligand binding
Calls of active or inactive are those of the source. The rule behind the calls is not given here.
Possible outcomes: Yes for active, No for inactive

- compound: "Cn1c(=O)c2c(ncn2CCN)n(C)c1=O"
  qualitative_label: "No"
- compound: "COc1cc2c(cc1OC)Cc1cc(OC)c(OC)cc1Cc1cc(OC)c(OC)cc1C2"
  qualitative_label: "No"
- compound: "O=C1NC(=O)C(Cc2ccccc2)C(=O)N1"
  qualitative_label: "No"
- compound: "Cc1nc2ccccc2c(=O)n1NC(=O)C1CCCCC1"
  qualitative_label: "No"
- compound: "O=C(CNC(=O)c1ccc(F)cc1)NC1=NCCS1"
  qualitative_label: "No"
- compound: "Cc1nc2nc(-c3ccco3)nn2c(C)c1Cl"
  qualitative_label: "No"
- compound: "C=CCc1ccc2c(c1)OCO2"
  qualitative_label: "No"
- compound: "COc1ccc(C2(C)NC(=O)NC2=O)cc1 (stereo not drawn)"
  qualitative_label: "No"
- compound: "Cc1cccc(NC(=O)NC(N)=O)c1"
  qualitative_label: "No"
- compound: "CN(C)/C=N/S(=O)(=O)c1ccccc1"
  qualitative_label: "No"
- compound: "NCc1csc(-c2cccs2)n1"
  qualitative_label: "No"
- compound: "O=C(NCc1cccc2ccccc12)c1cccs1"
  qualitative_label: "Yes"
- compound: "CCc1c(C)[nH]c(=S)c(C(N)=O)c1C"
  qualitative_label: "No"
- compound: "O=C1NC(=S)N/C1=C\\c1ccccc1"
  qualitative_label: "No"
- compound: "COc1ccc(S(=O)(=O)N2CCOCC2)cc1C(C)C"
  qualitative_label: "No"
- compound: "CC1(C)SCC(C(=O)O)N1C=O (stereo not drawn)"
  qualitative_label: "No"
- compound: "Cc1ccc2nc(NC(=O)CN3CCOCC3)sc2c1"
  qualitative_label: "No"
- compound: "CNC(=O)c1cc2cccc(OC)c2oc1=O"
  qualitative_label: "No"
- compound: "OCC1Cc2ccccc2N1 (stereo not drawn)"
  qualitative_label: "No"
- compound: "CS(=O)(=O)Nc1ccc(C(=O)N2CCCCC2)cc1"
  qualitative_label: "No"
- compound: "O=c1cnnc(Nc2ccc(O)cc2)[nH]1"
  qualitative_label: "No"
- compound: "Cc1ccccc1-n1c(N)cc(=O)[nH]c1=S"
  qualitative_label: "No"
- compound: "O=c1cc(-c2ccccc2)oc2cc(O)cc(O)c12"
  qualitative_label: "No"

----------
# target_or_test_system: Chaperone protein DnaK (Escherichia coli (strain K12))
# method: binders of DnaK substrate-binding domain, biophysical, NMR, chaperone (AID 1033)
# conditions: Purified DnaK SBD, NMR ligand binding
The source made the active and inactive calls. No rule for the calls is given here.
Labels: label 1 (active), label 0 (inactive)

- compound: "C[n+]1cc2c3c(ccc2c2ccc4cc5c(cc4c21)OCO5)OCO3"
  qualitative_label: "label 0"
- compound: "O=C(NCc1cccc2ccsc12)c1cccs1"
  qualitative_label: "label 1"
- compound: "O=[N+]([O-])c1ccc(/C=N/c2ncn[nH]2)cc1"
  qualitative_label: "label 0"
- compound: "Cc1nc(NC(=O)c2cccnc2)ccc1Br"
  qualitative_label: "label 0"
- compound: "Cc1nn(-c2ccccc2)c(Cl)c1C(N)=O"
  qualitative_label: "label 0"

----------
# target_or_test_system: Chaperone protein DnaK (Escherichia coli (strain K12)) (UniProt P0A6Y8)
# Sequence (P0A6Y8 whole entry, looked up, the tested form may be a part): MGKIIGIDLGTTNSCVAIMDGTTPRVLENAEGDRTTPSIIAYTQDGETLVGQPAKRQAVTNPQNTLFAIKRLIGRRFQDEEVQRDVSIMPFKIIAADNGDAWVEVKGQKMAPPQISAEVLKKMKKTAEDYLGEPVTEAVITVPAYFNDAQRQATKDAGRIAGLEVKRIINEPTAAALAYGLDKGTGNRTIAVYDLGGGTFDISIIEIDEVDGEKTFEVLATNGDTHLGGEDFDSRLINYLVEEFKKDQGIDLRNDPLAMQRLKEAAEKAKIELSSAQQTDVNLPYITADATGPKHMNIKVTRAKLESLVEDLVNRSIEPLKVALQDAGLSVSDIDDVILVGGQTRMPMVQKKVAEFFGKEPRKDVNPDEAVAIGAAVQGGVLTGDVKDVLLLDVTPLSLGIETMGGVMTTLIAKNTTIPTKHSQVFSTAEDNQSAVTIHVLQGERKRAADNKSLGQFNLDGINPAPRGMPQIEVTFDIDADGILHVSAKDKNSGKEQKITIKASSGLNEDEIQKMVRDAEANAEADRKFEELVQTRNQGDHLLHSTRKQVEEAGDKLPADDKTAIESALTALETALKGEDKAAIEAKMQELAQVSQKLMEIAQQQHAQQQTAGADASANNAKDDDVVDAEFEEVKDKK
# method: binders of DnaK substrate-binding domain, biophysical, NMR, chaperone (AID 1033)
# conditions: Purified DnaK SBD, NMR ligand binding
Active and inactive are the calls of the source. How the calls were made is not given here.
Outcomes: active, inactive

- compound: "Cc1ccc(S(=O)(=O)CC(N)=O)cc1"
  qualitative_label: "inactive"
- compound: "CCSc1nc(N)c(NC(=O)c2ccco2)c(=O)[nH]1"
  qualitative_label: "inactive"
- compound: "O=c1c[n+]([O-])c2ccccc2n1OCc1ccccc1"
  qualitative_label: "inactive"
- compound: "O=C(O)C1CC(=O)N(Cc2cccs2)C1 (stereo unspecified)"
  qualitative_label: "inactive"
- compound: "NCCc1cnc[nH]1"
  qualitative_label: "inactive"
- compound: "Cc1ncc(CC(=O)O)s1"
  qualitative_label: "inactive"
- compound: "O=C1C=C(Nc2ccc(O)cc2)c2ccccc2C1=O"
  qualitative_label: "inactive"
- compound: "Cc1csc(NC(=O)c2ccoc2C)n1"
  qualitative_label: "inactive"
- compound: "COc1cc2c(cc1OC)[C@@H]1C(=O)c3ccc(OC)c(CC=C(C)C)c3O[C@@H]1CO2"
  qualitative_label: "inactive"
- compound: "Cn1c(CNc2ccccc2)cc(=O)n(C)c1=O"
  qualitative_label: "inactive"
- compound: "Cn1c([O-])c([N+](C)(C)C)c(=O)n(C)c1=O"
  qualitative_label: "inactive"
- compound: "Cc1cc2ncc(C(=O)Nc3ccccc3)c(C)n2n1"
  qualitative_label: "inactive"
- compound: "CC(C)c1ccc2c(c1)CCC1[C@](C)(CN)CCC[C@]21C (stereo partly specified)"
  qualitative_label: "inactive"
- compound: "Cc1cn2c(-c3cccnc3)nnc2s1"
  qualitative_label: "inactive"
- compound: "O=C(NCc1ccccn1)c1ccc(Cl)cc1Cl"
  qualitative_label: "inactive"
- compound: "c1ccc(Cc2nnc3sc(-c4cccnc4)nn23)cc1"
  qualitative_label: "inactive"
- compound: "O=C(NC(=O)N1CCOCC1)c1ccccc1"
  qualitative_label: "inactive"
- compound: "O=C1C2CC=CCC2C(=O)N1c1ccccc1 (stereo unspecified)"
  qualitative_label: "inactive"
- compound: "CC(=O)O[C@@H]1C=C[C@@]2(C)C(C[C@@H](OC(C)=O)[C@@]3(C)C4=CC(=O)O[C@@H](c5ccoc5)[C@]4(C)CCC23)C1(C)C (stereo partly specified)"
  qualitative_label: "inactive"
- compound: "O=C(Nc1cccnc1)c1c(F)cccc1F"
  qualitative_label: "inactive"
- compound: "O=C1c2ccccc2C(=O)N1OCc1ccccc1"
  qualitative_label: "inactive"
- compound: "C=CC(=O)N1CC2CC(C1)c1cccc(=O)n1C2 (stereo unspecified)"
  qualitative_label: "inactive"
- compound: "C=CCNC(=O)c1ccc(Cl)cc1Cl"
  qualitative_label: "inactive"
- compound: "CC(=O)Nc1ccc(CN2CCOCC2)cc1"
  qualitative_label: "inactive"
- compound: "Nc1ccc2sccc2c1"
  qualitative_label: "inactive"
- compound: "Cn1nc(-c2cccs2)cc1N"
  qualitative_label: "inactive"
- compound: "COc1ccc([C@@H]2CC(=O)c3c(O)cc(O[C@@H]4O[C@H](CO[C@H]5O[C@@H](C)[C@H](O)[C@@H](O)[C@H]5O)[C@@H](O)[C@H](O)[C@H]4O)cc3O2)cc1O"
  qualitative_label: "inactive"
- compound: "CSc1nc(NC(C)C)nc(N2CCOCC2)n1"
  qualitative_label: "inactive"
- compound: "O=c1oc2ccccc2cc1O"
  qualitative_label: "inactive"
- compound: "Cc1cc(C(=O)NC(C)c2ccncc2)no1 (stereo unspecified)"
  qualitative_label: "inactive"
- compound: "Cc1ccccc1NS(=O)(=O)c1ccc(F)cc1"
  qualitative_label: "active"
